# Test system: NCI/ADR-RES ovarian
# assay comment: NCI-60 one-dose screen, 48 h (100 = growth as untreated, 0 = no growth, -100 = all killed)
# condition context: 10 µM unless noted
This is part of a sample that, as a whole, favours compounds with a hit. Of some 83,000 tested, about 20% had one in any assay. The source made the active and inactive calls. Rule for the calls: active = growth percent below 10; inactive = the rest.
For each entry below, report its growth value.

>  <compound>
COCCCNC1=C(C#N)C(=O)NC(c2cccs2)S1 (centres undefined)

>  <growth>
110% (inactive)

$$$$
>  <compound>
NCCSSC/C=C\CSSCCN

>  <growth>
107% (inactive)

$$$$
>  <compound>
O=C1c2cccnc2-c2ncccc21

>  <growth>
102% [100 µM] (inactive)

$$$$

Parameters: items (list). Returns: growth for each item.
1. O=C(O)c1ccc2c3ccc(C(=O)O)c4c(C(=O)O)ccc(c5ccc(C(=O)O)c1c25)c43
2. CC1(C)CC(=O)NC1=O
3. COC(=O)CCOc1ccccc1

Given back:
1. 114% (inactive)
2. 103% (inactive)
3. 108% (inactive)

Parameters: items (list). Returns: growth for each item.
1. O=C(O)Cc1cc(=O)[nH]n(-c2ccccc2)c1=O
2. CCOC(=N)c1ccc(C(=N)OCC)cc1
3. COc1ccc(CCO)cc1
4. CC(=O)Nc1cscc1NC(C)=O
5. O=C1c2ccccc2C(c2ccccc2)C1c1ccccc1 (centres undefined)
6. CCc1ccc(OC(=O)CCl)cc1
7. CCN(C)c1ccccc1

Given back:
115% (inactive)
104% (inactive)
108% (inactive)
98.9% (inactive)
94.8% (inactive)
103% (inactive)
97.3% (inactive)

Asked: Consider the compound Oc1ccc(O)c(-c2ccccc2)c1 . State its measured growth.
Given back: 50.6% (inactive)

###

For each entry below, report its growth value.
# Test system: HOP-62 NSCLC
# assay comment: NCI-60 one-dose screen, 48 h (100 = growth as untreated, 0 = no growth, -100 = all killed)
# condition context: 10 µM unless noted
This is part of a sample that, as a whole, favours compounds with a hit. Of some 83,000 tested, about 20% had one in any assay. The source made the active and inactive calls. The calls were made as follows: active = growth percent below 10; inactive = the rest.

Worked examples follow.
>  <compound>
COc1cc2c(cc1O)C(=O)CCCC2

>  <growth>
91.5% (inactive)

$$$$
>  <compound>
CC(=O)Nc1cscc1NC(C)=O

>  <growth>
98.2% (inactive)

$$$$
>  <compound>
CCOC(C)=N

>  <growth>
101% (inactive)

$$$$
>  <compound>
COc1ccc2nccc(Cl)c2c1

>  <growth>
98.4% (inactive)

$$$$
>  <compound>
O=C(c1ccc(Cl)cc1)C1C(c2ccccc2)C1[N+](=O)[O-] (stereo not drawn)

>  <growth>
98% (inactive)

$$$$

Parameters: items (list). Returns: growth for each item.
1. CCOC(=O)c1ccc(N2C(=O)C(Cl)(c3ccccc3)C2c2ccco2)cc1 (stereo not drawn)
2. COc1ccc(/C=N/NC(N)=S)cc1
3. C/C=C(/C(=O)NC(N)=O)C(C)C
4. CCN(CC)CCO/N=C1\CC(c2ccc(OC)c(OC)c2)Oc2ccccc21 (stereo not drawn)
5. O=C1c2ccccc2C(c2ccccc2)C1c1ccccc1 (stereo not drawn)
6. COC(=O)c1nc(=S)[nH]c(C(=O)OC)c1C(=O)c1ccc(OC)cc1
7. CCn1c2ccc(N(C)C)cc2c2cc(N(C)C)ccc21
8. Clc1ccc2sc(-c3ccccc3)nc2c1

Given back:
1: 110% (inactive); 2: 93.4% (inactive); 3: 111% (inactive); 4: 104% (inactive); 5: 98.6% (inactive); 6: 123% (inactive); 7: 90.2% (inactive); 8: 74.5% (inactive)

###

# Test system: SK-MEL-28 melanoma
# assay comment: NCI-60 one-dose screen, 48 h (100 = growth as untreated, 0 = no growth, -100 = all killed)
# condition context: 10 µM unless noted
The panel holds about 83,000 compounds, 20% with a hit somewhere; the sample as a whole holds those more often.
quantity: growth (%)
Answers are plain numbers, in %.

Worked examples follow.
>  <molecule>
CCOP(=O)(OCC)/C(C#N)=C/c1c(C)[nH]c2ccccc12

>  <growth (%)>
113

$$$$
>  <molecule>
COc1ccc2oc3c(ccc[n+]3C)c(=O)c2c1

>  <growth (%)>
103

$$$$
>  <molecule>
CN(C=O)c1ccccc1

>  <growth (%)>
109

$$$$
>  <molecule>
CCCCC/C(C)=N\NC(N)=S

>  <growth (%)>
94.2

$$$$
>  <molecule>
COc1cc2c(cc1O)C(=O)CCCC2

>  <growth (%)>
111

$$$$
>  <molecule>
OCc1cccc(F)c1

>  <growth (%)>
116

$$$$
>  <molecule>
Nc1ccccc1SC1CC(=O)N(c2ccc(I)cc2)C1=O (centres undefined)

>  <growth (%)>
90.8

$$$$
>  <molecule>
CCN(CC)CCO/N=C1\CC(c2ccc(OC)c(OC)c2)Oc2ccccc21 (centres undefined)

>  <growth (%)>
107

$$$$
>  <molecule>
COC(=O)c1ccccc1Cl

>  <growth (%)>
115

$$$$
>  <molecule>
OCCS

>  <growth (%)>
109

$$$$

Parameters: items (list). Returns: growth for each item.
1. O=[N+]([O-])c1cccc(N=Cc2ccccc2)c1
2. O=S(=O)(O)c1ccc2cc(O)ccc2c1
3. CCOC(=O)CN1CCC(C(=O)OCC)CC1
4. CC(=O)Oc1cc(C)c(OC(C)=O)c(C)c1C

Given back:
[122, 117, 108, 130]

###

# System: SF-539 CNS
# assay comment: NCI-60 one-dose screen, 48 h (100 = growth as untreated, 0 = no growth, -100 = all killed)
# condition context: 10 µM unless noted
This is part of a sample that, as a whole, favours compounds with a hit. Of some 83,000 tested, about 20% had one in any assay. Calls of active or inactive are those of the source. The calls were made as follows: active = growth percent below 10; inactive = the rest.
For each entry below, report its growth value.

Worked examples follow.
>  <compound>
CCOC(=O)CN1CCC(C(=O)OCC)CC1

>  <assay system>
SF-539 CNS

>  <quantity>
growth

>  <obs value>
117% (inactive)

$$$$
>  <compound>
Cc1ccc(NC(=S)N/C=C(\c2ccccc2)S(=O)Cc2ccccc2)c(C)c1 (centres undefined)

>  <assay system>
SF-539 CNS

>  <quantity>
growth

>  <obs value>
103% (inactive)

$$$$
>  <compound>
C/C=C/C(=O)OCCCCCCCCCCCC

>  <assay system>
SF-539 CNS

>  <quantity>
growth

>  <obs value>
109% (inactive)

$$$$
>  <compound>
COc1ccc(CCNC(=S)NN)cc1OC

>  <assay system>
SF-539 CNS

>  <quantity>
growth

>  <obs value>
95% (inactive)

$$$$
>  <compound>
CC(O)CCNC(c1ccccc1)C(O)c1ccccc1 (centres undefined)

>  <assay system>
SF-539 CNS

>  <quantity>
growth

>  <obs value>
115% (inactive)

$$$$
>  <compound>
O=C1c2cccnc2-c2ncccc21

>  <assay system>
SF-539 CNS

>  <quantity>
growth

>  <obs value>
104% [100 µM] (inactive)

$$$$

Parameters: items (list). Returns: growth for each item.
1. Cc1cc2ccccc2c2cc3ccccc3cc12
2. CC1=CC(=O)c2cccc(NC3=NCCO3)c21

Given back:
1: 92.6% (inactive); 2: 95.7% (inactive)

###

# Tested on: SR leukemia
# assay comment: NCI-60 one-dose screen, 48 h (100 = growth as untreated, 0 = no growth, -100 = all killed)
# condition context: 10 µM unless noted
This is part of a sample that, as a whole, favours compounds with a hit. Of some 83,000 tested, about 20% had one in any assay. Activity calls are given as the source filed them. How the source made its calls: active means growth percent below 10; inactive means the rest.
For each entry below, report its growth value.

Parameters: items (list). Returns: growth for each item.
1. O=c1[nH]c(=O)c2[nH]c(=O)[nH]c2[nH]1
2. CCC(C)NC(=O)c1ccccc1C (stereo not drawn)
3. O=C1c2cccnc2-c2ncccc21
4. C/C(=C\c1ccccc1)C(O)C(=O)c1nc2ccc([N+](=O)[O-])cc2[nH]c1=O (stereo not drawn)

Given back:
["114% (inactive)", "111% (inactive)", "120% [100 µM] (inactive)", "102% (inactive)"]

###

# Tested on: UACC-62 melanoma
# assay comment: NCI-60 one-dose screen, 48 h (100 = growth as untreated, 0 = no growth, -100 = all killed)
# condition context: 10 µM unless noted
The panel holds about 83,000 compounds, 20% with a hit somewhere; the sample as a whole holds those more often.
Doc: threshold 90% (exclusive). Items with growth beneath it return true; others return false.

Asked: Would you kindly verify if growth of CCCC(=O)Oc1ccc2ccccc2c1 is strictly less than 90%?
Given back: false

Asked: Would you kindly verify if growth of C/C(CC(C)C)=N/NC(N)=S is strictly less than 90%?
Given back: false

Each recorded value in this set is attributed to PubChem BioAssay (NCI).
